- PROTOCOL NOTES: Volume of distribution in Sprague-Dawley rat at 2 mg/kg, iv by LC-MS/MS analysis
- Type: ADME, organism-based
- EXPERIMENTAL SETUP: in vivo
MEASURED ATTRIBUTE: Vd (L/kg)

[
  {
    "INPUT SMILES": "CC(=O)N1CCC(Nc2cc3c(cn2)C2(CC2)CN(C[C@H](O)CN2CCc4ccccc4C2)C3=O)CC1",
    "EXPERIMENTAL VALUE": 3
  },
  {
    "INPUT SMILES": "CC(=O)N1CCC(Nc2cc(C(=O)NC[C@H](O)CN3CCc4ccccc4C3)ncn2)CC1",
    "EXPERIMENTAL VALUE": 1.4
  },
  {
    "INPUT SMILES": "CC(=O)N1CCC(Nc2ccc3c(c2)C(=O)N(C[C@H](O)CN2CCc4ccccc4C2)CC32CC2)CC1",
    "EXPERIMENTAL VALUE": 2.6
  },
  {
    "INPUT SMILES": "CC(=O)N1CC2(CC(Nc3cc4c(cn3)C3(CC3)CN(C[C@H](O)CN3CCc5ccccc5C3)C4=O)C2)C1",
    "EXPERIMENTAL VALUE": 1.4
  }
]

A: CC(=O)N1CCC(Nc2ccc3c(c2)C(=O)N(C[C@H](O)CN2CCc4ccccc4C2)CC32CCC2)CC1
B: CC(=O)N1CCC(Nc2ccc3c(c2)C(=O)N(C[C@H](O)CN2CCc4ccccc4C2)CC32CCCC2)CC1
// max by Vd over [ A , B ] Answer = label.
B

Entry source: ChEMBL document CHEMBL6087464
